Where do these numbers come from? They come from patent US5073551A.

Experiment: In-vivo absorption test, serum concentration after oral administration (bioassay)
Set-up: species or system Wistar type rat (male)
Conditions: 2 hr after oral administration, 50 mg/kg, fasted male Wistar rat, bioassay with Bacirus cereus S1101, read-out: Blood concentration / Serum concentration
measured.property: concentration at 2 h (ng/mL)

compound="CCOC(=O)OC(C)OC(=O)C1=C(/C=C\\c2csnn2)CSC2C(NC(=O)/C(=N\\O)c3csc(N)n3)C(=O)N12 (racemic)" numeric_readout=37800
compound="CC(=O)OC(C)OC(=O)C1=C(/C=C\\c2csnn2)CSC2C(NC(=O)/C(=N\\O)c3csc(N)n3)C(=O)N12 (racemic)" numeric_readout=56600
compound="CC(C)(C)C(=O)OCOC(=O)C1=C(/C=C\\c2csnn2)CS[C@@H]2C(NC(=O)/C(=N\\O)c3csc(N)n3)C(=O)N12 (stereo partly shown)" numeric_readout=9800
compound="Nc1nc(/C(=N/O)C(=O)NC2C(=O)N3C(C(=O)[O-])=C(/C=C\\c4csnn4)CS[C@H]23)cs1.[Na+] (stereo partly shown)" numeric_readout=6000

* * *

# concentration at 1 h annotations
Assay: In-vivo absorption test, serum concentration after oral administration (bioassay)
Parameters: species or system Wistar type rat (male)
Details: 1 hr after oral administration, 50 mg/kg, fasted male Wistar rat, bioassay with Bacirus cereus S1101, read-out: Blood concentration / Serum concentration
measured.property: concentration at 1 h

compound="CCOC(=O)OC(C)OC(=O)C1=C(/C=C\\c2csnn2)CSC2C(NC(=O)/C(=N\\O)c3csc(N)n3)C(=O)N12 (racemic)" result="26600 ng/mL"
compound="CC(C)(C)C(=O)OCOC(=O)C1=C(/C=C\\c2csnn2)CS[C@@H]2C(NC(=O)/C(=N\\O)c3csc(N)n3)C(=O)N12 (stereo partly shown)" result="11300 ng/mL"
compound="CC(=O)OC(C)OC(=O)C1=C(/C=C\\c2csnn2)CSC2C(NC(=O)/C(=N\\O)c3csc(N)n3)C(=O)N12 (racemic)" result="72100 ng/mL"
compound="Nc1nc(/C(=N/O)C(=O)NC2C(=O)N3C(C(=O)[O-])=C(/C=C\\c4csnn4)CS[C@H]23)cs1.[Na+] (stereo partly shown)" result="4800 ng/mL"

* * *

Experiment: In-vivo absorption test, serum concentration after oral administration (bioassay)
Set-up: species or system Wistar type rat (male)
Details: 4 hr after oral administration, 50 mg/kg, fasted male Wistar rat, bioassay with Bacirus cereus S1101, read-out: Blood concentration / Serum concentration
measured.property: concentration at 4 h

compound="CC(=O)OC(C)OC(=O)C1=C(/C=C\\c2csnn2)CSC2C(NC(=O)/C(=N\\O)c3csc(N)n3)C(=O)N12 (racemic)" result="33400 ng/mL"
compound="CCOC(=O)OC(C)OC(=O)C1=C(/C=C\\c2csnn2)CSC2C(NC(=O)/C(=N\\O)c3csc(N)n3)C(=O)N12 (racemic)" result="26700 ng/mL"
compound="Nc1nc(/C(=N/O)C(=O)NC2C(=O)N3C(C(=O)[O-])=C(/C=C\\c4csnn4)CS[C@H]23)cs1.[Na+] (stereo partly shown)" result="6000 ng/mL"
compound="CC(C)(C)C(=O)OCOC(=O)C1=C(/C=C\\c2csnn2)CS[C@@H]2C(NC(=O)/C(=N\\O)c3csc(N)n3)C(=O)N12 (stereo partly shown)" result="5800 ng/mL"

* * *

Test system: P. mirabilis IFO 3849
Assay: In-vitro antibacterial activity test, minimum growth inhibitory concentration (MIC), P. mirabilis
Assay type: cell-based
Conditions: Proteus mirabilis, IFO3849; P. mirabilis IFO 3849; read-out: Minimum growth inhibitory concentration
# MIC annotations
measured.property: MIC (µg/mL)

molecule="Cc1snnc1/C=C\\C1=C(C(=O)[O-])N2C(=O)C(NC(=O)/C(=N\\O)c3csc(N)n3)[C@H]2SC1.[Na+] (stereo partly shown)" bound_sign== numeric_readout=0.39
molecule="C=CC1=C(C(=O)O)N2C(=O)C(NC(=O)/C(=N\\OCC(=O)O)c3csc(N)n3)C2SC1 (stereo not shown) [A, reference compound]" bound_sign=≤ numeric_readout=0.025
molecule="Nc1nc(/C(=N/O)C(=O)NC2C(=O)N3C(C(=O)O)=C(/C=C\\c4cnns4)CSC23)cs1 (stereo not shown)" bound_sign== numeric_readout=0.39
molecule="Cc1nnsc1/C=C\\C1=C(C(=O)[O-])N2C(=O)C(NC(=O)/C(=N\\O)c3csc(N)n3)[C@H]2SC1.[Na+] (stereo partly shown)" bound_sign== numeric_readout=0.39

* * *

Tested on: S. aureus 209 P-JC
Assay: In-vitro antibacterial activity test, minimum growth inhibitory concentration (MIC), S. aureus
Type: cell-based
Conditions: Staphylococcus aureus, 209PJC; S. aureus 209 P-JC; read-out: Minimum growth inhibitory concentration
measured.property: MIC (µg/mL)

molecule="Nc1nc(/C(=N/O)C(=O)NC2C(=O)N3C(C(=O)O)=C(/C=C\\c4cnns4)CSC23)cs1 (stereo not shown) [Example 21]" numeric_readout=0.2
molecule="Cc1snnc1/C=C\\C1=C(C(=O)[O-])N2C(=O)C(NC(=O)/C(=N\\O)c3csc(N)n3)[C@H]2SC1.[Na+] (stereo partly shown) [Example 18]" numeric_readout=0.2
molecule="Cc1nnsc1/C=C\\C1=C(C(=O)[O-])N2C(=O)C(NC(=O)/C(=N\\O)c3csc(N)n3)[C@H]2SC1.[Na+] (stereo partly shown) [Example 14]" numeric_readout=0.1
molecule="C=CC1=C(C(=O)O)N2C(=O)C(NC(=O)/C(=N\\OCC(=O)O)c3csc(N)n3)C2SC1 (stereo not shown) [A, reference compound]" numeric_readout=12.5
